Taken from PubChem BioAssay AID588689.

TARGET OR SYSTEM: Genome polyprotein (Dengue virus type 2 (strain 16681-PDK53)) (UniProt P29991)
MEASUREMENT PROTOCOL: flavivirus cap methylation enzyme inhibition – biochemical, confirmation dose response, primary screen (AID 588689)
CONDITIONS: Dengue-2 NS5 methyltransferase capping enzyme assay, at 25 µM, active compounds read high
Among all 340,000 compounds or so, about 1,000 (0.29%) were called active. Not all results are given here. Results with a measured potency or affinity are listed apart.

{"MOLECULE": "Oc1ccc(/C=N/N(c2ccccc2)c2ccccc2)c(O)c1O", "UNITS SYMBOL": "%", "inhibition": 9.52}
{"MOLECULE": "CCc1cc(=O)oc2c3c(cc(OCC(=O)NCCCn4ccnc4)c12)OC(C)(C)CC3", "UNITS SYMBOL": "%", "inhibition": -1.45}
{"MOLECULE": "O=C(NN=Cc1ccc(O)cc1)c1ccccc1NS(=O)(=O)c1cccs1", "UNITS SYMBOL": "%", "inhibition": 2.92}
{"MOLECULE": "CCN(CC)c1ccc(/C=N/N=C(c2ccccc2)c2ccccc2)c(O)c1", "UNITS SYMBOL": "%", "inhibition": -35.6}
{"MOLECULE": "COc1cc(CCNC2=CC(=O)c3ncccc3C2=O)ccc1O", "UNITS SYMBOL": "%", "inhibition": -6.94}
{"MOLECULE": "Cc1ccsc1CN(C)Cc1nc(C2CC2)no1", "UNITS SYMBOL": "%", "inhibition": 1.78}
{"MOLECULE": "CCOC(=O)c1c(S(=O)(=O)N(C)C2CCCCC2)c(C)n(C)c1C", "UNITS SYMBOL": "%", "inhibition": -7.99}
{"MOLECULE": "O=C(c1ccc2c3c(cccc13)CC2)C1CCCN(Cc2ccncc2)C1 (centres undefined)", "UNITS SYMBOL": "%", "inhibition": -3.47}
{"MOLECULE": "O=C1c2ccccc2-c2cccnc21", "UNITS SYMBOL": "%", "inhibition": -0.66}
{"MOLECULE": "COC(=O)C1=C(C)NC(=O)/C1=C\\c1cccs1", "UNITS SYMBOL": "%", "inhibition": 2.73}
{"MOLECULE": "COc1ccc(-c2noc(CCC(=O)N3CCN(c4ccccc4C)CC3)n2)cc1", "UNITS SYMBOL": "%", "inhibition": -3.97}
{"MOLECULE": "COc1ccc(CCNC(=O)C2CC(c3ccc([N+](=O)[O-])cc3)=NO2)cc1 (centres undefined)", "UNITS SYMBOL": "%", "inhibition": 2.79}
{"MOLECULE": "CN(CCOc1ccccc1)C(=O)c1cc(S(=O)(=O)N2CCOCC2)ccc1Cl", "UNITS SYMBOL": "%", "inhibition": -7.25}
{"MOLECULE": "COc1ccc(NC(=S)N2CCC(C(=O)c3ccc(C)cc3)CC2)cc1", "UNITS SYMBOL": "%", "inhibition": -11.5}
{"MOLECULE": "COc1ccc(-c2cccc(NC(=O)c3cccs3)c2)nn1", "UNITS SYMBOL": "%", "inhibition": -3.63}
{"MOLECULE": "CC(=O)N1CCN(Cc2nc3cc(NC(=O)c4ccccc4C)ccc3n2C)CC1", "UNITS SYMBOL": "%", "inhibition": -0.69}
{"MOLECULE": "COc1ccc(N=Nc2ccc(N)nc2N)cc1", "UNITS SYMBOL": "%", "inhibition": 1.3}
{"MOLECULE": "COc1cccc(C(=O)Nn2c(-c3cccs3)nc3ccccc3c2=O)c1OC", "UNITS SYMBOL": "%", "inhibition": -3.56}
{"MOLECULE": "CCOC(=O)c1c(NC(=O)C2C3CCC(O3)C2C(=O)O)sc(C)c1-c1ccc(C)cc1 (centres undefined)", "UNITS SYMBOL": "%", "inhibition": 16.7}
{"MOLECULE": "Cc1cc2n(n1)C(c1ccsc1)Nc1ccccc1-2 (centres undefined)", "UNITS SYMBOL": "%", "inhibition": -9.35}
{"MOLECULE": "COc1cc(/C=N/N=C(/C(=O)c2ccccc2)c2ccccc2)cc(OC)c1O", "UNITS SYMBOL": "%", "inhibition": 0}
{"MOLECULE": "O=C(CSc1nc2ccccc2s1)Nc1cc(S(=O)(=O)N2CCOCC2)ccc1Cl", "UNITS SYMBOL": "%", "inhibition": -0.74}
{"MOLECULE": "CC(=O)Nc1c(O)nc(SCC(=O)Nc2nnc(SCc3ccccc3)s2)[nH]c1=O", "UNITS SYMBOL": "%", "inhibition": 3.91}
{"MOLECULE": "O=C1NN(c2ccc(F)cc2)C(=O)/C1=C/c1cccs1", "UNITS SYMBOL": "%", "inhibition": 8.53}
{"MOLECULE": "O=C(CN1CCOCC1)Nc1ccccc1NC(=O)C1CCN(c2ncccn2)CC1", "UNITS SYMBOL": "%", "inhibition": -11.3}
{"MOLECULE": "Cn1c(=O)c2c(SCc3ccccc3)nc(C3CC3)nc2n(C)c1=O", "UNITS SYMBOL": "%", "inhibition": -11.1}
{"MOLECULE": "Cc1ccc(C)c(S(=O)(=O)NC2CCSC2=O)c1 (centres undefined)", "UNITS SYMBOL": "%", "inhibition": 0}
{"MOLECULE": "Cc1cc(=O)[nH]c(SCC(=O)Nc2nnc(SCc3ccccc3)s2)n1", "UNITS SYMBOL": "%", "inhibition": -1.48}
{"MOLECULE": "CCOC(=O)c1c(NC(=O)C2C3CCC(O3)C2C(=O)O)sc2c1CCCC2 (centres undefined)", "UNITS SYMBOL": "%", "inhibition": -0.74}
{"MOLECULE": "CC1(C)CC[C@]2(C(=O)O[C@@H]3OC(CO)[C@@H](O)[C@H](O)[C@H]3O)CC[C@]3(C)C(=CCC4[C@@]5(C)CC[C@H](O[C@@H]6OC(C(=O)O)[C@@H](O)[C@H](O)[C@H]6O)C(C)(C)C5CC[C@]43C)[C@@H]2C1 (some centres undefined)", "UNITS SYMBOL": "%", "inhibition": 20.2}
{"MOLECULE": "O=C1OC(c2ccc(Cl)cc2)/C(=C(/O)c2ccccc2)C1=O (centres undefined)", "UNITS SYMBOL": "%", "inhibition": 28.1}
{"MOLECULE": "CC1=C(C#N)C(=O)NC1(C)O (centres undefined)", "UNITS SYMBOL": "%", "inhibition": 5.14}
{"MOLECULE": "Oc1c(C(Nc2ccccn2)c2cccnc2)cc(Cl)c2cccnc12 (centres undefined)", "UNITS SYMBOL": "%", "inhibition": -1.46}
{"MOLECULE": "CC(=O)C1=C(O)C(=O)OC1c1ccc(Cl)cc1 (centres undefined)", "UNITS SYMBOL": "%", "inhibition": -3.11}
{"MOLECULE": "CN1CCN(c2ccc(NS(=O)(=O)c3ccc(Cl)cc3)cn2)CC1", "UNITS SYMBOL": "%", "inhibition": -7.03}
{"MOLECULE": "C=CCN1C(=O)/C(=C\\c2cccs2)C(C(=O)OC)=C1C", "UNITS SYMBOL": "%", "inhibition": -4.71}
{"MOLECULE": "O=C(CCC(=O)N1CCCC(Nc2ccccc2)C1)c1ccc(F)cc1 (centres undefined)", "UNITS SYMBOL": "%", "inhibition": 2.72}
{"MOLECULE": "O=C(O)c1ccccc1C(=O)c1ccc(Cl)cc1", "UNITS SYMBOL": "%", "inhibition": 1.15}
{"MOLECULE": "O=S(=O)(Cc1ccccc1)N1CCN(Cc2ccc(F)cc2Cl)CC1", "UNITS SYMBOL": "%", "inhibition": -4.55}
{"MOLECULE": "CCCCCN(C(=O)CCC(=O)OCc1cccc(C(F)(F)F)c1)c1c(N)n(CCCC)c(=O)[nH]c1=O", "UNITS SYMBOL": "%", "inhibition": -5.15}
{"MOLECULE": "COC(=O)c1c(-c2ccc(C(C)(C)C)cc2)csc1NC(=O)C1C2CCC(O2)C1C(=O)O (centres undefined)", "UNITS SYMBOL": "%", "inhibition": 10.8}
{"MOLECULE": "CC1(C(=O)N2CCN(c3ccc([N+](=O)[O-])cc3)CC2)CC1(Cl)Cl (centres undefined)", "UNITS SYMBOL": "%", "inhibition": -2.36}
{"MOLECULE": "CCCc1ncc(CN2CCCCC2C(=O)Nc2ccc(Oc3ccccc3)nc2)cn1 (centres undefined)", "UNITS SYMBOL": "%", "inhibition": -5.15}
{"MOLECULE": "COc1ccc2cc(CCNC(=O)CCc3ccccc3)c(=O)[nH]c2c1", "UNITS SYMBOL": "%", "inhibition": 0.89}
